Numbers sourced from patent US7071225B2.

# target.of.assay: 5-HT2a (Rattus norvegicus)
# Construct: endogenous in cells; host or cells: A7r5 rat vascular smooth muscle cells
# protocol.details: 5-HT2 functional assay: [Ca2+]i mobilization (FLIPR) in A7r5 cells
# Type: cell-based
# test.settings: A7r5 cells, Ca2+ mobilization; read-out: FLIPR 5-HT2a EC50
pEC50: −log10 of the molar value. Counter-ions that a name gives are not always drawn.
endpoint.label: pEC50

{"columns": ["compound", "target.of.assay", "endpoint.label", "observed.result"],
 "data": [
  ["COc1cc([C@H](O)[C@@H](C)N)c(OC)c2ccccc12 [Example 3, hydrochloride]", "5-HT2a (Rattus norvegicus)", "pEC50", 5.85],
  ["COc1cc(C(O)C(C)N)c(OC)c2ccccc12 (centres unmarked) [Example 2, hydrochloride]", "5-HT2a (Rattus norvegicus)", "pEC50", 5.83]
]}

====

A collection of molecules and their measured Emax
# target.of.assay: 5-HT2a (Rattus norvegicus, UniProt P14842)
# Construct: endogenous in cells; host or cells: A7r5 rat vascular smooth muscle cells
# Sequence (P14842 whole entry): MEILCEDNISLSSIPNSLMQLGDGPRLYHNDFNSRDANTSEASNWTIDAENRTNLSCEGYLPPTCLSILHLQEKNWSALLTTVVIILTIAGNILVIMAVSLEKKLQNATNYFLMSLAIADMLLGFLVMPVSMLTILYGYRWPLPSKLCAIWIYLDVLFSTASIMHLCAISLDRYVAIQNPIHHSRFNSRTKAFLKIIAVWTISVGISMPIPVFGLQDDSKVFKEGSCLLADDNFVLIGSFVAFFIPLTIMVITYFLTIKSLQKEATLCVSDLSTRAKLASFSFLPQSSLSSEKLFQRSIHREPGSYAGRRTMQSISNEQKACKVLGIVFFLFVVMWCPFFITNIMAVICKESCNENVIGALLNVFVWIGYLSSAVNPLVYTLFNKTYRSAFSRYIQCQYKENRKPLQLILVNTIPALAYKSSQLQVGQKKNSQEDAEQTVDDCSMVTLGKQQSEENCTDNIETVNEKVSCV
# protocol.details: 5-HT2 functional assay: [Ca2+]i mobilization (FLIPR) in A7r5 cells
# Format: cell-based
# test.settings: A7r5 cells, percentage of maximum 5-HT-induced response; read-out: FLIPR 5-HT2a % Emax A7r5 Ca + 2
Structures can show the parent of a compound that is named as a salt.

{"columns": ["molecule", "Emax / %"],
 "data": [
  ["COc1ccc(OC)c2cc(CC(C)N)ccc12 (centres unmarked) [Example 8, hydrochloride]", 2.6],
  ["COc1cc(CC(C)N)c(OC)c2ccccc12 (centres unmarked) [Example 1, hydrochloride]", 46.5],
  ["COc1c(CC(C)N)ccc2ccccc12 (centres unmarked) [Example 4, hydrochloride]", 28.9],
  ["COc1c(CC(C)N)cc(Br)c2ccccc12 (centres unmarked) [Example 5, hydrochloride]", 38.9],
  ["COc1cc([C@H](O)[C@@H](C)N)c(OC)c2ccccc12 [Example 3, hydrochloride]", 28.4],
  ["CC(N)Cc1ccc2ccccc2c1 (centres unmarked) [Example 10, hydrochloride]", 20.4],
  ["COc1cc(C(=O)C(C)N)c(OC)c2ccccc12 (centres unmarked) [Example 9, hydrochloride]", 21.8],
  ["CC(N)Cc1ccc2ccccc2c1O (centres unmarked) [Example 7, hydrochloride]", 17.3],
  ["COc1cc(CC(C)N)cc2ccccc12 (centres unmarked) [Example 11, hydrochloride]", 46.4],
  ["COc1cc(C(O)C(C)N)c(OC)c2ccccc12 (centres unmarked) [Example 2, hydrochloride]", 26.9],
  ["COc1cc(CC(C)N)c(Br)c2ccccc12 (centres unmarked) [Example 12, hydrochloride]", 37.4]
]}

====

# target.of.assay: 5-HT2a (Rattus norvegicus, UniProt P14842)
# Construct: endogenous in cells; host or cells: A7r5 rat vascular smooth muscle cells
# protocol.details: 5-HT2 functional assay: [Ca2+]i mobilization (FLIPR) in A7r5 cells
# Assay type: cell-based
Counter-ions that a name gives are not always drawn.

{"columns": ["compound", "EC50 (nM)"],
 "data": [
  ["COc1cc(CC(C)N)c(OC)c2ccccc12 (centres unmarked) [Example 1, hydrochloride]", 188],
  ["COc1c(CC(C)N)cc(Br)c2ccccc12 (centres unmarked) [Example 5, hydrochloride]", 1120],
  ["COc1cc(CC(C)N)cc2ccccc12 (centres unmarked) [Example 11, hydrochloride]", 612],
  ["COc1c(CC(C)N)ccc2ccccc12 (centres unmarked) [Example 4, hydrochloride]", 580],
  ["COc1cc(CC(C)N)c(Br)c2ccccc12 (centres unmarked) [Example 12, hydrochloride]", 911]
]}
